pIC50: −log10 of the molar value.
The following compounds have recorded pIC50 on Hsp70-NBD (Homo sapiens, UniProt P0DMV8).
Sequence (P0DMV8 1-381): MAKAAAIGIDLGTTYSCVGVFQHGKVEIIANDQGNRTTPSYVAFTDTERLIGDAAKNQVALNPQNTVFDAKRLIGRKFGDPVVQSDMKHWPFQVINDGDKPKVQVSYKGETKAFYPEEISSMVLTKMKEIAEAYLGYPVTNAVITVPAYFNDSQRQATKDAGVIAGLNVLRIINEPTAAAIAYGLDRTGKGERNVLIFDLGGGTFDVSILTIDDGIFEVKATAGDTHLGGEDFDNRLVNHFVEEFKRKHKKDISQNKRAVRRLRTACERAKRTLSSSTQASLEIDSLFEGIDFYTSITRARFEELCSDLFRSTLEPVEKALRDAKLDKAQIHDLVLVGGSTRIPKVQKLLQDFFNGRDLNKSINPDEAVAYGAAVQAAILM
MEASUREMENT NAME: pIC50

[[record]]
compound = "O=P(O)(O)OP(=O)(O)OC[C@H]1O[C@@H](n2cnc3c(NC4CCCCC4)ncnc32)[C@H](O)[C@@H]1O [6-cHe ADP, N6-cyclohexyladenosine-5’-diphosphate]"
readout_number = 2.60

[[record]]
compound = "O=P(O)(O)OP(=O)(O)OC[C@H]1O[C@@H](n2cnc3c(NCCc4ccccc4)ncnc32)[C@H](O)[C@@H]1O"
readout_number = 2.51

[[record]]
compound = "O=P(O)(O)OP(=O)(O)OC[C@H]1O[C@@H](n2cnc3c(NCc4ccco4)ncnc32)[C@H](O)[C@@H]1O [6-Fu ADP, N6-furfuryladenosine-5’-diphosphate]"
readout_number = 2.49

[[record]]
compound = "Cc1cccc(CNc2ncnc3c2ncn3[C@@H]2O[C@H](COP(=O)(O)OP(=O)(O)O)[C@@H](O)[C@H]2O)c1"
readout_number = 2.73

[[record]]
compound = "O=P(O)(O)OP(=O)(O)OC[C@H]1O[C@@H](n2cnc3c(NCc4ccccc4)ncnc32)[C@H](O)[C@@H]1O [6-Bn ADP, N6-benzyladenosine-5’-diphosphate]"
readout_number = 2.63

